So I've got a bunch of molecules here, and I need their TGI values.
test system: DU-145 prostate; test: NCI tumour cell line growth inhibition, 48 h
Where a SMILES comes first, the peptide text is derived from it. [ ]: non-standard residue; d: D form. The star is where a group is joined. ξ: configuration not given here. Cbz = O=C(OCc1ccccc1)*; ξK = NCCCCC(N)C(=O)O

Query: Which TGI is reported with DU-145 prostate for this entry: Cc1cc(OCc2n[nH]c(=S)n2/N=C/c2ccc(F)cc2)ccc1Cl ?
Result: > 100 µM

Query: Then CC(C)(C)c1ccc(O)c(C[N+](C)(C)C)c1 ?
Result: > 100 µM

Query: Check NCCCCC(NC(=O)OCc1ccccc1)C(=O)NCC(N)=O (configuration not stated) (Cbz-[ξK]-Gly-NH2) too.
Result: > 100 µM

Query: One more molecule: O=C1C[C@H](Sc2ccccc2)C2(OCCO2)[C@H]2ON3CCC[C@@H]3[C@@H]12
Result: 6.95 µM

Query: Continue with CC(=O)Nc1cc(C(=O)Nc2cc(C(=O)Nc3cc(C(=O)Nc4cc(C(=O)Nc5cc(C(=O)NCCC(=O)NCCCN(C)C)n(C)c5)n(C)c4)n(C)c3)n(C)c2)n(C)c1
Result: > 100 µM

Query: Next molecule up: NC(=O)NN=C1C[C@H]2CCCC[C@H]2C1
Result: > 100 µM

Query: Same again, this time with c1ccc(N=C2SC(c3ccccc3)(c3ccccc3)c3ccccc32)cc1
Result: > 100 µM

Query: Try this molecule next: O=C1C=CC(=O)c2c1c1c(c3c2C2c4ccccc4C3c3ccccc32)C2c3ccccc3C1c1ccccc12
Result: 28.4 µM

Query: Next molecule: CC(=O)OCC1OC(OC2=C(CC=C(C)C)C(=O)c3ccccc3C2=O)C(OC(C)=O)C(OC(C)=O)C1OC(C)=O (configuration not stated)
Result: 22.9 µM

Query: Follow-up entry: O=C(Nc1cccc(C(F)(F)F)c1)C(=O)C(C(=O)c1ccc2ccccc2c1)C1OC(=O)c2ccccc21 (configuration not stated)
Result: 81.2 µM

Query: // query: CCN1C/C(=C\c2cc(OC)c(OC)c(OC)c2)C2=NN(c3ccccc3)C(c3cc(OC)c(OC)c(OC)c3)C2C1 (configuration not stated)
Result: 23.6 µM

Query: Same question for O=c1c2sc3nc(NCCN4CCCCC4)ncc3c2ncn1-c1ccccc1 please.
Result: > 100 µM

Query: And then O=C1CNc2cc(N3CCN(c4ccccc4)CC3)ccc2N1 , what is it?
Result: > 100 µM

Query: Field entry: N#CCCC1(CCC#N)CCc2ccccc2C1=O
Result: > 100 µM

Query: Entry COc1ccc2c(c1OC)CN1CCc3cc4c(cc3C1C2)OCO4 (configuration not stated) please
Result: > 100 µM

Query: Follow-up entry: COc1ccc2c(c1)N(CCO)C1=C(C(=O)OC1)C2c1cc(OC)c(OC)c(OC)c1 (configuration not stated)
Result: 0.188 µM

Query: Again, but for Cc1ccccc1N=Nc1cc(C)c(N=Nc2c(O)ccc3ccccc23)cc1C
Result: > 100 µM

Query: Further, for CC(C(N)=O)N(C)C(=O)c1cc2ccccc2[n+](Cc2ccccc2)c1 (configuration not stated) ?
Result: > 100 µM

Query: # repeat for COC(O)C12OC3CO[Si](C(C)C)(C(C)C)O[Si](C(C)C)(C(C)C)OC3C1Oc1nc(=O)ccn12 (configuration not stated)
Result: 30.6 µM

Query: Another molecule to check: COc1cc(/C=N/NC(=O)c2ccc(NC(C)=O)cc2OC)ccc1O
Result: > 100 µM

Query: What would you report for COC(=O)[C@@]12OC[C@]34[C@H]([C@@H](O)[C@@H]1O)[C@@]1(C)CC(=O)C(OC(C)=O)=C(C)[C@@H]1C[C@H]3OC(=O)[C@H](OC(=O)C=C(C)C)[C@@H]24 ?
Result: 6.37 µM

Query: Cool, now CC1(C)CC(=O)C(Cc2ccccc2)(Cc2ccccc2)C(=O)C1
Result: > 100 µM

Query: // query: COc1ccc(C2=C(c3cn(C)c4ccccc34)C(=O)NC2=O)cc1
Result: > 25 µM

Query: What would you report for COC(=O)C1=C(C)NC(C)=C(C(=O)OC)C1c1ccc(NO)cc1 ?
Result: 35.8 µM

Query: Cool, now CN(C)c1ccc(-c2[nH]c(=O)c3ccccc3[n+]2C)cc1
Result: > 100 µM

Query: Further, for O=C(O)/C=N/NC(=S)NC1CCCCC1 ?
Result: > 100 µM

Query: Also O=C1/C(=C/c2ccc3c(c2)CCC3)Cc2cc3c(cc21)CCC3 , if possible.
Result: > 100 µM

Query: And the next one, Cn1cc(NC(=O)c2cc(NC(=O)c3cc(NC=O)cn3C)cn2C)cc1C(=O)NCCC(=N)N ?
Result: > 100 µM

Query: Then CC(=O)Oc1ccc2c(c1OC(C)=O)CCC1C2=CC[C@]2(C)C(=O)CCC12 (some centres not stated) ?
Result: 30.1 µM

Query: # iterate: O=c1nc(Oc2c(F)c(F)c(F)c(F)c2F)ccn1C1OC(CO)C(O)C1O (configuration not stated)
Result: > 100 µM

Query: Likewise for CC1(C)OCC(C2CCC3(C)C4=CCC5C(C)(C)C(O)CCC5(C)C4CCC23C)CC(O)C1O (configuration not stated) ?
Result: 29 µM

Query: And for COc1c(OCCCN2CCOCC2)ccc2c3n(c(=NC(=O)c4cnc(N)nc4)nc12)CCN3 ?
Result: > 100 µM

Query: Input CCCCC/C=C\C=C1\C(=O)C=C[C@@H]1C/C=C\CCCC(=O)O
Result: 15.5 µM

Query: Then what about the molecule Cc1cc(S(=O)(=O)Nc2nc(N)nc(N(C)C)n2)c(S)cc1Cl ?
Result: > 10 µM

Query: Queued: C=C(C)[C@@H]1CC[C@]2(CNCCO)CC[C@]3(C)[C@H](CC[C@@H]4[C@@]5(C)CCC(N)[C@@](C)(CO)[C@@H]5CC[C@]43C)[C@@H]12 (some centres not stated)
Result: 3.18 µM

Query: Please give the result for Cc1ccc(C(=O)Nc2ccc(S(=O)(=O)O)c3cc(S(=O)(=O)O)cc(S(=O)(=O)O)c23)cc1NC(=O)Nc1cc(C(=O)Nc2ccc(S(=O)(=O)O)c3cc(S(=O)(=O)O)cc(S(=O)(=O)O)c23)ccc1C too.
Result: > 87.5 µM

Query: Note, next up: O=C(CC(=O)Nc1ccccc1Cl)NNC(c1cc(N=Nc2ccc(Br)cc2)ccc1O)P(O)O (configuration not stated)
Result: > 10 µM

----------
test system: UACC-257 melanoma; assay: NCI tumour cell line growth inhibition, 48 h
Reported Property: TGI

Query: So what does the record say about TGI for Cc1cc2c(cc1C)N1C(Cl)=C3CCCCC3=C(C#N)C1N2 (stereo not given) ?
Result: 22.3 µM

Query: Please answer likewise for Nc1nc(-c2cccc3ccccc23)cc2ccccc12
Result: 16 µM

Query: Check CN(CCNC(=O)c1[nH]nc2c1Cc1ccccc1-2)CCNC(=O)c1[nH]nc2c1Cc1ccccc1-2 too.
Result: 34.3 µM

Query: What about NC(=O)NN=C1C[C@H]2CCCC[C@H]2C1 ?
Result: > 100 µM

Query: Another molecule to check: COc1cc(/C=C/C(=O)c2cc(OC)c(OC)c(OC)c2)ccc1Oc1nc2c(c(=O)n(C)c(=O)n2C)n1C
Result: 4.63 µM

Query: Please give the result for CC(=O)Nc1ccc(-c2csc(Nc3ccc(-c4csc(-c5ccccc5)n4)cc3)n2)cc1 too.
Result: > 50 µM

Query: Could you do the same for O=C1/C(=C/c2cccc(O)c2)COc2ccccc21 , please?
Result: 7.29 µM

Query: Same thing, different molecule: CC[C@]12C=CCN3CC[C@]4(C(=C(C(=O)OC)C1)Nc1cc(OC)c(OC(C)=O)cc14)[C@@H]32
Result: 17.5 µM

Query: What would you report for COc1cc(-n2cncc2-c2ccc3ccccc3c2)cc(OC)c1OC ?
Result: > 100 µM

Query: What do you have for CC(C)(Cl)C(Cl)CC/C(CBr)=C(\Cl)CCl (stereo not given) ?
Result: 14 µM

Query: Another molecule to look at: O=c1c(O)c(O)c1=O.[NH2-].[NH2-].[NH2-].[NH2-].[NH2-].[Ru+5]
Result: > 100 µM

Query: Another molecule to check: COc1ccc(C(OCC2OC(n3cnc4c(=O)n(Cc5ccccc5[N+](=O)[O-])nnc43)C(O)C2O)(c2ccccc2)c2ccc(OC)cc2)cc1 (stereo not given)
Result: > 100 µM

Query: Repeat with Nc1ncnc2oc(-c3cccs3)nc12
Result: > 100 µM

Query: Same lookup for CC12OC(=O)[C@@]3(O)CCC4C(C[C@H]5O[C@]56CC=CC(=O)[C@]46C)C45OC[C@H]6C(=O)O[C@@H]1C[C@@]6(C)[C@H](C4=O)C23O5 (stereo not given in full) , please.
Result: 4.98 µM

Query: Now this one: c1ccc(N=C2SC(c3ccccc3)(c3ccccc3)c3ccccc32)cc1
Result: > 100 µM

Query: Likewise for COc1cc(C(=O)/C=C/c2c(-c3cccs3)nc3sc(C)cn23)cc(OC)c1OC ?
Result: 66 µM

Query: Now try c1cc(N2CCCC2)c2nc(-c3[nH]ncc3Nc3ncnc4[nH]ccc34)[nH]c2c1 .
Result: 1.11 µM

Query: // repeat for O=C1c2ccccc2-c2c1c1ccccc1c(=O)n2-c1cccnc1 and report
Result: > 100 µM

Query: Let us now turn to Cc1cn(CCOCCOC(=O)NC(CCCN=C(N)N)C(=O)O)c(=O)[nH]c1=O (stereo not given)
Result: > 100 µM

Query: Same thing, different molecule: COC(=O)[C@@H](Nc1ccccc1)[C@@]1(C(=O)OC)SC12c1ccccc1-c1ccccc12
Result: > 100 µM

Query: For N#CC(C#N)=C/C=C(\Sc1ccc(F)c(Cl)c1)c1ccc(Cl)cc1 then?
Result: 19.5 µM

Query: Consider next the molecule O=C([O-])c1ccc2c(c1)-c1nc-2nc2[n-]c(nc3nc(nc4[n-]c(n1)c1ccc(C(=O)[O-])cc41)-c1ccc(C(=O)[O-])cc1-3)c1ccc(C(=O)[O-])cc21.[Gd+3].[K+] in the same way.
Result: > 100 µM

Query: Please do the same for CC/C(CC(=O)CCC(=O)Nc1c(C)cccc1C)=N\NC(=O)NN as well.
Result: > 100 µM

Query: Quick one: O=C1CCCn2c(nc3ccccc32)N1
Result: > 100 µM

Query: Same again, this time with CCNC(=S)NNC(=O)c1nsc2ccccc12
Result: > 100 µM

Query: Follow-up item: O=C(Cc1csc2nc(-c3ccc(Br)cc3)cn12)N/N=C/c1cc(Br)ccc1O
Result: 63.2 µM

Query: And then C=C(C(=O)OC)[C@H]1CC/C(C)=C/CC[C@@](C)(O)C=CC[C@@]2(C)O[C@@H]2C1 , what is it?
Result: > 100 µM

Query: Also OC(Cc1cccnc1)(c1ccccc1)c1ccccc1 , if possible.
Result: > 100 µM

Query: And for COc1ccccc1N1C(=O)C2C3c4ccccc4C(OC(C)=O)(c4ccccc43)C2C1=O (stereo not given) ?
Result: > 100 µM

Query: Entry to check: CN(O)C(=O)c1ccccc1
Result: > 100 µM

Query: Record: C/C(=N\NC(=S)NCCNC(=S)N/N=C(\C)c1ccccn1)c1ccccn1
Result: 22.3 µM

Query: Again, but for CCCCCC(/C=N/Nc1ccccc1)C(O)(C(F)(F)F)C(F)(F)F (stereo not given)
Result: > 100 µM

Query: Same again, this time with O=S(=O)(O)c1ccc(N=Nc2ccc(N=Nc3c(O)ccc4cc(S(=O)(=O)O)ccc34)cc2)cc1
Result: > 100 µM

Query: And then CCN(CC)CCCNc1nc2ccccc2[n+]([O-])n1 , what is it?
Result: > 100 µM

Query: Then what about the molecule CCOc1cc(NC(C)=O)ccc1C(=O)NN1C(=O)/C(=C/c2ccco2)N=C1c1ccccc1 ?
Result: > 100 µM

Query: Now consider COc1ccc(-c2cc(=O)c3c(O)c(OC)c(O)c(OC)c3o2)cc1OC and answer again.
Result: > 100 µM

Query: Also need COc1cc(C2c3cc4c(cc3OC(N3CCCCC3)C2C)OCO4)cc(OC)c1OC (stereo not given) , thanks.
Result: > 82.7 µM

Query: Let us now turn to CCOC(=O)C=C1CCC2(CC1)OCCO2
Result: > 100 µM

Query: Ok, now COc1ccc(C23c4ccc(OC)cc4CC2(c2ccc([N+](=O)[O-])cc2)Cc2cc(OC)ccc23)cc1 (stereo not given)
Result: > 100 µM

Query: And Nc1ccc2c(c1)Cc1cc(Cl)c(Cl)cc1-2 ?
Result: > 100 µM

The origin of these recorded values is PubChem BioAssay (NCI).
